assay: chemical genetic growth profiling, strain panel (AID 1159580);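 further: tested at 20 µM; growth read once vehicle control cultures reached saturation at 30 °C; lower values mean less growth of the strain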; conditions: S. cerevisiae deletion strains, growth OD, locus YNL067W, strain RPL9B, stronger effect = lower value
Screen size: about 5,500 compounds; about 2,000 (36%) were called active. About 18% were inconclusive and are not listed. The list shows a part of the results.
Note to self: use satisfied only for normalized growth readings below 1; a reading exactly at 1 still gets not satisfied.

These recorded examples may help you get a feel for the data.
CCOc1ccc(NC(C)=O)cc1    not satisfied
COc1cc(/C=C/C=O)cc(OC)c1OC    not satisfied
CCOc1ccc(C(=O)c2ccc(O)c(O)c2O)cc1    satisfied

Problem: Given the entry CN1C(=O)CCS(=O)(=O)C1c1ccc(Cl)cc1 (stereo unspecified) , would its reported normalized growth be below 1?
Solution: not satisfied

* * *

assay: chemical genetic growth profiling, strain panel (AID 1159580);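 further: tested at 20 µM; growth read once vehicle control cultures reached saturation at 30 °C; lower values mean less growth of the strain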; conditions: S. cerevisiae deletion strains, growth OD, locus YIL073C, strain SPO22
The campaign covered roughly 5,500 compounds. About 2,000 (36%) were called active. Another 18% or so got no clear call; they are omitted. Rule as the data show it: active = normalized growth mostly below about 0.91 (no sharp cut-off); inconclusive = no clear call, values can overlap the other calls; inactive = mostly above about 0.92. Some of the results follow. Where a SMILES comes first, the peptide text is derived from it. [ ]: non-standard residue; d: D form. Orn = NCCC[CH](N)C(=O)O
Your response should consist of one outcome taken from active, inactive

CC1=C(O)C(=O)C=C2C1=CC=C1[C@@]2(C)CC[C@@]2(C)[C@@H]3C[C@](C)(C(=O)O)CC[C@]3(C)CC[C@]12C    active
CN1CCN(CCC=C2c3ccccc3Sc3ccc(S(=O)(=O)N(C)C)cc32)CC1    inactive
COc1cccc(O)c1O    inactive
CN(C)CCc1c[nH]c2ccc(CS(=O)(=O)N3CCCC3)cc12    inactive
COc1cc(-c2coc3cc(O[C@@H]4O[C@H](CO)[C@@H](O)[C@H](O)[C@H]4O)c(OC)c(O)c3c2=O)cc(O)c1OC    inactive

Problem: Record lookup: outcome of this test for C1CCC(C(CC2CCCCN2)C2CCCCC2)CC1 (stereo not given) ?
Solution: active

Problem: Record lookup: outcome of this test for CC(C)CC1NC(=O)C(CCCN)NC(=O)C(C(C)C)NC(=O)C2CCCN2C(=O)C(Cc2ccccc2)NC(=O)C(CC(C)C)NC(=O)C(CCCN)NC(=O)C(C(C)C)NC(=O)C2CCCN2C(=O)C(Cc2ccccc2)NC1=O (stereo not given) (cyclo(FPV[Orn]LFPV[Orn]L); configuration not given here) ?
Solution: active

Problem: Record lookup: outcome of this test for Cc1c(NC(=O)c2cccnc2)c(=O)n(-c2ccccc2)n1C ?
Solution: inactive

Problem: Record lookup: outcome of this test for CC(=O)OCC1=C(C(=O)O)N2C(=O)[C@@H](NC(=O)CCCC(N)C(=O)O)C2SC1 (stereo not given in full) ?
Solution: inactive

Problem: Record lookup: outcome of this test for COc1cc2c(cc1O)CCNC2C (stereo not given) ?
Solution: inactive

* * *

assay: chemical genetic growth profiling, strain panel (AID 1159580);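 further: tested at 20 µM; growth read once vehicle control cultures reached saturation at 30 °C; lower values mean less growth of the strain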; settings: S. cerevisiae deletion strains, growth OD, locus YMR058W, strain fet3
Among all 5,500 compounds or so, about 2,000 (36%) were called active. Not shown: some 18% with an inconclusive outcome. Cut-off read from the data, not from the text of the source: active = normalized growth mostly below about 0.91 (no sharp cut-off); inconclusive = no clear call, values can overlap the other calls; inactive = mostly above about 0.92. This is one part of the list.
Your response should consist of one outcome taken from Yes = active, No = inactive

Problem: Record lookup: outcome of this test for CC1=CC2C(C(C)C)CCC(C)(O)C2CC1 (configuration not stated) ?
Solution: No

Problem: Record lookup: outcome of this test for NC(=O)NO ?
Solution: No

Problem: Record lookup: outcome of this test for CNS(=O)(=O)Cc1ccc2[nH]cc(CCN(C)C)c2c1 ?
Solution: No

Problem: Record lookup: outcome of this test for CC(=O)O[C@H]1CC[C@]2(C)C3CC[C@@]4(C)C(CC5O[C@@]6(CCC(C)CO6)[C@@H](C)C54)C3CC[C@@H]2C1 (some centres not stated) ?
Solution: No

The measurements presented in this section are drawn from PubChem BioAssay AID1159580.
